Here, each record is paired with measured PBM binding z-score data.
# Test system: PPARg:RXRa 30nM:10nM, anti-RXR (NR concentration 30 nM, RXRa partner concentration 10 nM)
# measurement_description: PBM binding z-score (relative to random genomic background probes); higher = stronger binding; sequences stand for … in GC…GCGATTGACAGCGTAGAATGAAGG

{"columns": ["seq", "PBM binding z-score"],
 "data": [
  ["ACAGACAGGTGACTGAAGGTAACTCAGCTGGACG", -0.0254],
  ["CAAACTAGGTTAAGAGGTCAAAGTCCGCTTCCCG", 5.52],
  ["TCATATAGGTAATGGTGAAAGTCGAACGATATGA", 3.89],
  ["TCGCCTAGGTCAGATCGGGCCAGTATACGCTATA", 1.68],
  ["CATACAGGGTCAGCTAAGCCAGAGTAGGGACGGC", 0.539],
  ["TAGCCTAGGTCAGATCGGGACAGTATACGCTATA", 0.0788],
  ["ATCTCTAGGTAACACTCAGTTCAGTGAAGAACGC", 0.527],
  ["GGAACGAGGGTAAGTTGATAGCAGAGTTTGATGG", -0.0948],
  ["TGAATGAGGTTAGAAGATCAGGGAACGTTGCAAA", 0.759],
  ["ATCTCCAGGTAAAGTTCAGTGAAAGATCGATAGA", 1],
  ["CCTTACGGGTCAAGGGTATAGCACGGGTGGTACG", 2.3],
  ["TCTAGTTGGTCACGGAGGTCACACATGACGGGTA", 3.55],
  ["TCATATAGGTAAACAGGCGAAAGTCCGTAAGTTA", 3.94],
  ["CTCGAAAGGTCGGTTGAGCTGAGTATACGGATAA", -0.12],
  ["TCTATTAGCTGATTAGGGCAACCGAAACAGCGGA", 2.86],
  ["ATCTCTAGGTACAAGTTCAGTGAATCCCGAGGAT", 3.23],
  ["TCATCTAGGTAATACAGGTGAAAGTCGGCATCTA", 3.85],
  ["CAAACTACGTCAAGGTCAAAGTCGGTTTGTGCCA", 0.626],
  ["AGTCAAAGTTCTCTAGGTAACGTAAGATTCAGCT", 0.092],
  ["GGAACGAGGGCATTCGAGTAGATAGCATGGCGAT", -0.0142],
  ["GCATCTAGGTAATACAAGGTGAAAGTCCGATTGT", 0.0503],
  ["ACTATTAGTTGACTTAAGGCAACCGATACGACGC", 0.511],
  ["TCTGCTAGGTCAGTTAGTCAGCTAACGAGCTGCC", 1.2],
  ["TCTTGTAGGTCAGCAGGTTAAGAAAGCTGGCCAA", 4.19],
  ["CCTTACGGGTGAAGGTTATAGCACGGGTGGTACG", -0.0216],
  ["GCTGCTAGCTCAGGTTGGTCAGCTAACGGGTACG", -1.04],
  ["TTTTGTAGATCAGCAGGTTAAGAAAGCTGGCCAA", 0.508],
  ["GCTGCTAGGTCAACTGATGGTCAGCTATAGCTCG", 0.633],
  ["GAGACAGGGTCAGCTAGAGGCCAGAGTATGGAAA", 0.35],
  ["ATCGAAAGGTTGAAGGTGAGTATACCCACCCGAA", 0.761],
  ["CATACTAGGTCAAGAGGTCAAAGTCCGCTTCCCG", 5.59],
  ["TCTGCTAGGTCCGTTGGTCAGCTAACGAGCTGCC", 0.802],
  ["TCTATTTGTTGATTAGGGCAACCGAAACAGCGGA", 3.98],
  ["ACTTACGGGTCAACGAGGTTCTAGCACGCGTATA", 1.82],
  ["TAGCCTAAGTCATTGGGCCAGTATAGTACGCATC", -0.281],
  ["GTACCAAGGAGAATAGGTCGTTGATGAGTAGGCG", -0.237],
  ["TCATATAGGTAAAAGGTGAAAGCCGGTGTGGTAA", 8.83],
  ["CGTAAAAGTTCAAGGTAACGTAACAGAAAGCAGC", 1.09],
  ["TCATATAGGCAAATGCTAGGTGAAAGTCCGATCT", 3.12]
]}
